All values here come from patent US8232406B2.

# collection of pKi values tested on c-MET (Homo sapiens, UniProt P08581)
# Sequence (P08581 25-1390): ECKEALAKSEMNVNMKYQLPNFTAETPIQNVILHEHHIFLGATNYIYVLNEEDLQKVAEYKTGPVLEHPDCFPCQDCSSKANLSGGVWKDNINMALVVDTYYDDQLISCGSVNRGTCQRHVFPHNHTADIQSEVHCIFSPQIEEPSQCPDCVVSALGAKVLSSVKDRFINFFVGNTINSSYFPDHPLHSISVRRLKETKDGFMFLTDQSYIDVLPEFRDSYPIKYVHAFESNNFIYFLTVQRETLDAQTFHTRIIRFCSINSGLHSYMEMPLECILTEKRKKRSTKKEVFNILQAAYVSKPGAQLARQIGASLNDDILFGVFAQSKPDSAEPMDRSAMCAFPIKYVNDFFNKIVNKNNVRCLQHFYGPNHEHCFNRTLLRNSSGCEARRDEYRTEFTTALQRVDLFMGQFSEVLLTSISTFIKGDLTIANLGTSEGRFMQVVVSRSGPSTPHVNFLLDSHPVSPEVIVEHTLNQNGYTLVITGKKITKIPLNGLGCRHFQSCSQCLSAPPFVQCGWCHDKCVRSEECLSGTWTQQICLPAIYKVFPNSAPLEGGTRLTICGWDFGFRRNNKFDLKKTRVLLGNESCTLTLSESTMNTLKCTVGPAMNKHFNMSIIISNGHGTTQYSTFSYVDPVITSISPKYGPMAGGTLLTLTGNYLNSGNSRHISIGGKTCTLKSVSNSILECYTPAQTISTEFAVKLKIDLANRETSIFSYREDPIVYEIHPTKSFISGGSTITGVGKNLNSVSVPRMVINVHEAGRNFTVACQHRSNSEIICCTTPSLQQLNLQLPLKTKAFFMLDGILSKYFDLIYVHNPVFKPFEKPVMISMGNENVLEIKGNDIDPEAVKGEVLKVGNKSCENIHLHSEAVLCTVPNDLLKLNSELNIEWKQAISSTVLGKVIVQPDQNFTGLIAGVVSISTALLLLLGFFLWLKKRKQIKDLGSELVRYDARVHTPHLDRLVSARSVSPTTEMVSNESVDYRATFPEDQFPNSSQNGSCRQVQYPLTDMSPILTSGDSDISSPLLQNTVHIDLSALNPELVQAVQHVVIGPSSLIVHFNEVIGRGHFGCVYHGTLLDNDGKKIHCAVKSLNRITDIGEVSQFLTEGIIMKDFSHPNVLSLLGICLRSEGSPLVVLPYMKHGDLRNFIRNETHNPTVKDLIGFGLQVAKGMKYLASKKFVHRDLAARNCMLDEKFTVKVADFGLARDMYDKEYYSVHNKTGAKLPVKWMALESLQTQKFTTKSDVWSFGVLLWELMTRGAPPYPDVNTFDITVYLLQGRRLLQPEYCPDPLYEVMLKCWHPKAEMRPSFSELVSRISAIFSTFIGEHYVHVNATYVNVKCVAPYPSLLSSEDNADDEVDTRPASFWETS
pKi: −log10 of the molar value.
property-label: pKi

[
  {
    "molecule": "Nc1ncc(-c2ccccc2)cc1-c1nncn1-c1cccc(Cl)c1Cl [I-A-74]",
    "property-label": "pKi",
    "endpoint-result": "6.00 to 7.00"
  },
  {
    "molecule": "Nc1ncc(-c2cnn(C3CCNCC3)c2)cc1-c1nnnn1-c1cc(Cl)ccc1F [I-A-635]",
    "property-label": "pKi",
    "endpoint-result": "≥ 7.00"
  },
  {
    "molecule": "CN(C)CCCNC(=O)c1ccc(-c2cnc(N)c(-c3nnnn3-c3cccc(Cl)c3Cl)c2)cc1 [I-A-125]",
    "property-label": "pKi",
    "endpoint-result": "≥ 7.00"
  },
  {
    "molecule": "COc1ccc(-c2cnc(N)c(-c3nncn3-c3cccc(Cl)c3Cl)c2)cc1OC [I-A-77]",
    "property-label": "pKi",
    "endpoint-result": "6.00 to 7.00"
  },
  {
    "molecule": "CC(=O)Nc1cccc(-c2cnc(N)c(-c3nnnn3-c3cccc(Cl)c3C)c2)c1 [I-A-565]",
    "property-label": "pKi",
    "endpoint-result": "6.00 to 7.00"
  },
  {
    "molecule": "CN1CCN(c2ccc(-c3cnc(N)c(-c4nnnn4-c4cccc(Cl)c4Cl)c3)cc2)CC1 [I-A-85]",
    "property-label": "pKi",
    "endpoint-result": "≥ 7.00"
  },
  {
    "molecule": "CN(C)Cc1ccc(-c2cnc(N)c(-c3nncn3-c3cccc(F)c3F)n2)cc1 [I-A-8]",
    "property-label": "pKi",
    "endpoint-result": "≥ 7.00"
  },
  {
    "molecule": "CN(C)CCCNC(=O)c1ccc(-c2cnc(N)c(-c3nnnn3-c3cccc(F)c3F)c2)cc1 [I-A-136]",
    "property-label": "pKi",
    "endpoint-result": "≥ 7.00"
  },
  {
    "molecule": "Nc1ncc(-c2ccn(C3CCNCC3)c2)cc1-c1nnnn1-c1cccc(Cl)c1F [I-A-652]",
    "property-label": "pKi",
    "endpoint-result": "≥ 7.00"
  },
  {
    "molecule": "Nc1ncc(-c2ccc(C3CCNCC3)cc2)cc1-n1nnnc1-c1cccc(F)c1F [I-E-3]",
    "property-label": "pKi",
    "endpoint-result": "6.00 to 7.00"
  },
  {
    "molecule": "Nc1ncc(-c2ccncc2)cc1-c1nnnn1-c1cccc(F)c1F [I-A-490]",
    "property-label": "pKi",
    "endpoint-result": "6.00 to 7.00"
  },
  {
    "molecule": "Nc1ncc(-c2cc3c(s2)CCNCC3)cc1-n1nnnc1-c1cccc(F)c1F [I-E-2]",
    "property-label": "pKi",
    "endpoint-result": "6.00 to 7.00"
  },
  {
    "molecule": "COc1c(F)cccc1-n1nnnc1-c1cc(-c2ccc(CN3CCCC3)cc2)cnc1N [I-A-604]",
    "property-label": "pKi",
    "endpoint-result": "6.00 to 7.00"
  },
  {
    "molecule": "Nc1ncc(-c2cnc3[nH]ccc3c2)nc1-c1nncn1-c1cccc(F)c1F [I-A-13]",
    "property-label": "pKi",
    "endpoint-result": "≥ 7.00"
  },
  {
    "molecule": "CC(C)N1CCC(n2cc(-c3cnc(N)c(-c4nnnn4-c4cccc(F)c4F)c3)cn2)CC1 [I-A-448]",
    "property-label": "pKi",
    "endpoint-result": "≥ 7.00"
  },
  {
    "molecule": "Nc1ncc(-c2ccsc2)cc1-c1nncn1-c1cccc(Cl)c1Cl [I-A-70]",
    "property-label": "pKi",
    "endpoint-result": "6.00 to 7.00"
  },
  {
    "molecule": "CCNC(=O)Nc1nc2cc(OC)c(-c3cnc(N)c(-c4nnnn4-c4cccc(F)c4F)n3)cc2[nH]1 [I-A-55]",
    "property-label": "pKi",
    "endpoint-result": "6.00 to 7.00"
  },
  {
    "molecule": "CC(=O)N1CCC(n2cc(-c3cnc(N)c(-c4nnnn4-c4cccc(F)c4F)c3)cn2)CC1 [I-A-455]",
    "property-label": "pKi",
    "endpoint-result": "≥ 7.00"
  },
  {
    "molecule": "Nc1ncc(-c2ccc(S(N)(=O)=O)s2)cc1-c1nnnn1-c1cccc(F)c1F [I-A-187]",
    "property-label": "pKi",
    "endpoint-result": "≥ 7.00"
  },
  {
    "molecule": "Nc1ncc(-c2cccc(C(F)(F)F)c2)cc1-c1nnnn1-c1cccc(F)c1F [I-A-215]",
    "property-label": "pKi",
    "endpoint-result": "6.00 to 7.00"
  },
  {
    "molecule": "CC(=O)N1CCC[C@H]1C(=O)N1CC=C(c2cnc(N)c(-c3nnnn3-c3cccc(F)c3F)c2)CC1 [I-A-641]",
    "property-label": "pKi",
    "endpoint-result": "6.00 to 7.00"
  },
  {
    "molecule": "Nc1ncc(-c2cnn([C@@H]3CCOC3)c2)cc1-c1nnnn1-c1cccc(-c2cnn([C@@H]3CCOC3)c2)c1F [I-A-421]",
    "property-label": "pKi",
    "endpoint-result": "6.00 to 7.00"
  },
  {
    "molecule": "CC(C)c1ccc(-c2cnc(N)c(-c3nnnn3-c3cccc(F)c3F)c2)cc1 [I-A-237]",
    "property-label": "pKi",
    "endpoint-result": "6.00 to 7.00"
  },
  {
    "molecule": "Nc1ncc(-c2cc(F)ccc2F)cc1-c1nnnn1-c1cccc(F)c1F [I-A-294]",
    "property-label": "pKi",
    "endpoint-result": "6.00 to 7.00"
  },
  {
    "molecule": "Nc1ncc(-c2nc3c(s2)CNCC3)nc1-c1nnnn1-c1cccc(F)c1F [I-A-537]",
    "property-label": "pKi",
    "endpoint-result": "6.00 to 7.00"
  }
]
